# composite z-score listing for each entry below
target: Calmodulin-1 (Homo sapiens) (UniProt P0DP23); test: CALM1 binders on microarrays, EGTA buffer, profiling panel, biochemical, small-molecule microarray, Cy5-labelled CALM1 (AID 1111); conditions: Cy5-CALM1 binding fluorescence, higher = more signal;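 further: labelled calmodulin applied in Tris saline Tween buffer holding calcium plus EGTA and DTT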

Solved entries:
# Molecule, composite z-score
measured = [
    ("Cc1ccc(S(=O)(=O)NC(CCc2ccccc2)CC(=O)C(C)(C)C)cc1 (stereo not drawn)", -0.0921),
    ("CC(CCN1CCCCc2nc(C)c(C)cc21)=NO[C@H](C)c1cn([C@H](CO)Cc2ccccc2)nn1", -0.418),
    ("CCOC(=O)[C@H](CC(C)C)NC(=O)CCC1CC(OC(=O)NCc2cccc3ccccc23)CC2(CCCC(COC(=O)NCCc3ccc(Cl)cc3)O2)O1 (stereo partly drawn)", 0.0203),
    ("CCOC(=O)NN=C1C[C@@H](O)[C@@H](O)[C@@H]2[C@@H]3C(=O)N(C(C)(C)C)C(=O)[C@@H]3CC[C@H]12", -0.0749),
    ("CCc1cc2c(nc1CC)CCN(CCC(C)=NO[C@H](C)c1cn([C@H](CO)Cc3ccccc3)nn1)C2", -0.315),
    ("COC(=O)C=CCCc1coc(C=CCNC(=O)OC)n1", -0.316),
    ("CCOC(=O)[C@H](CC(C)C)NC(=O)CCC1CC(OC(=O)NCc2cccc3ccccc23)CC2(CCCC(COC(=O)NCc3ccncc3)O2)O1 (stereo partly drawn)", -0.118),
]

Now consider the entry below.
Req: Returns the measured composite z-score for the input molecule. Input: O=C1C[C@@H](O)[C@@H](O)[C@@H]2[C@@H]3C(=O)N(C[C@@H]4CCCO4)C(=O)[C@@H]3CC[C@H]12
Resp: 0.0222

---

target: Dihydroorotate dehydrogenase (quinone), mitochondrial (Plasmodium falciparum (isolate 3D7)) (UniProt Q08210); test: PfDHODH enzyme inhibitors, primary screen, biochemical, C-terminal His tag, absorbance 600 nm (AID 1175); conditions: DCIP absorbance 600 nm, higher = more signal, called active from +8 up or from −8 down;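 further: recombinant parasite enzyme with a five histidine tag at its C terminus; test concentration not given here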
Sequence (Q08210 whole entry, looked up): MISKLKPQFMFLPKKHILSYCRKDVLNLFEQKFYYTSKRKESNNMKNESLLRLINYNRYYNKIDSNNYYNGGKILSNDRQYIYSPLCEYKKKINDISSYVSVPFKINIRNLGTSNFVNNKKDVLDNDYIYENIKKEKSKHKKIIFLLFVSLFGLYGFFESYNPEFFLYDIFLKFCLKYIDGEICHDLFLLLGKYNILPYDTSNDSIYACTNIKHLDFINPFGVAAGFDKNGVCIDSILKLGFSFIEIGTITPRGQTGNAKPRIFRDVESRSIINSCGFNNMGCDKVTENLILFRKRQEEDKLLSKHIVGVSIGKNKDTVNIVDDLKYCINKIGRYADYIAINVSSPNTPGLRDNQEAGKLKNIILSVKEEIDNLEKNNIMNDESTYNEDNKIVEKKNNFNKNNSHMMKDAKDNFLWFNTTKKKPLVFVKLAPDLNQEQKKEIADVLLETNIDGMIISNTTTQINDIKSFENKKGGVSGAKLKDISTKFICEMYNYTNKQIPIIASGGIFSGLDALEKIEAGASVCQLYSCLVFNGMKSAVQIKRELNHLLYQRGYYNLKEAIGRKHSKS
Quantity: composite z-score
// return just the number, without any unit appended

Below, 5 compounds whose answers are already recorded.
# Compound, composite z-score
data = [
    ("Cn1c(=O)n2n(c1=O)[C@H]1[C@H](O)[C@@H]3O[C@@H]3C(=NOCc3ccccc3)[C@H]1CC2", -1.08),
    ("CCCNC(=O)OC[C@H]1O[C@H](CCON=Cc2ccc(C(=O)N3[C@H](c4ccc(C)cc4)[C@@H](C)CC[C@H]3C(=O)OC)cc2)C=C[C@@H]1Oc1ccc(OC)cc1", 0.415),
    ("CCOC(=O)[C@H](CC(C)C)NC(=O)CCC1CC(OC(=O)NCc2cccc3ccccc23)CC2(CCCC(COC(=O)NCCc3ccc(Cl)cc3)O2)O1 (some centres undefined)", -1.16),
    ("CCOC(=O)[C@H](Cc1ccccc1)NC(=O)CCC1CC(OC(=O)NCc2ccc3c(c2)OCO3)CC2(CCCC(COC(=O)NCCC(C)C)O2)O1 (some centres undefined)", 0.55),
    ("C=Cc1ccc([C@H]2N[C@H](C(=O)O)CC[C@@H]2C)cc1", -0.13),
]

Req: Name the reported composite z-score value associated with the compound CO[C@H](C1CCCCC1)[C@H](C)C=CCC(=O)OCCCc1ccccc1
Resp: 0.503

Req: Could you do the same for C#CCCCON=C1C[C@@H](O)[C@@H](O)[C@@H]2[C@@H]3C(=O)N(c4cccc(Oc5ccccc5)c4)C(=O)[C@@H]3CC[C@H]12 , please?
Resp: -1.48

Req: Next compound: CCOC(=O)[C@H](Cc1ccccc1)NC(=O)CCC1CC(OC(=O)NCCc2ccc(F)cc2)CC2(CCCC(COC(=O)NCCc3ccc(Cl)cc3)O2)O1 (some centres undefined)
Resp: -0.161

Req: Ok, now C=CC[C@@H]1C=C[C@H](ON=C(C)CCC(=O)OC[C@H]2O[C@H](C#Cc3ccccc3)C=C[C@@H]2Oc2ccc(C)cc2)[C@@H](CO)O1
Resp: 0.103

Req: Queued: O=c1n(Cc2cc3c(cc2Cl)OCO3)c(=O)n2n1CC[C@@H]1C(=NOC[C@@H](O)COCc3ccco3)[C@H]3O[C@H]3[C@@H](O)[C@@H]12
Resp: 0.634

Req: What do you have for C[C@@H]1NC(=O)[C@@H](C)COC(=O)[C@H](C)NC(=O)[C@@H](C)COC1=O ?
Resp: -3.05

Req: Next up: COc1ccc(O[C@H]2C=C[C@@H](c3ccccc3)O[C@@H]2COC(=O)CCC(C)=NOC[C@@H](O)[C@H]2O[C@@H]3OC(C)(C)O[C@@H]3[C@H]2O)cc1
Resp: -1.15

Req: Another compound to look at: CCOC(=O)[C@H](CC(C)C)NC(=O)CCC1CC(OC(=O)NCc2ccc3c(c2)OCO3)CC2(CCCC(COC(=O)NCCCN3CCCC3=O)O2)O1 (some centres undefined)
Resp: -1.42

---

assay: S. cerevisiae RM11-1a growth modifiers, primary screen, strain RM11-1a, OD600, basal, 24 h (AID 1177); conditions: OD600, 24 h, higher = more signal, called active from +8 up or from −8 down;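 further: cultures grown under basal conditions with no added stressor; test concentration not given here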
Quantity: z-score
Answer with a number only.

Some solved entries appear below for comparison.
# Smiles Code, z-score
data = [
    ("COC(=O)[C@@H]1CC[C@H](C)[C@@H](c2ccc(C)cc2)N1C(=O)c1ccc(C=NO[C@@H](C)c2cn([C@H](CO)Cc3ccccc3)nn2)cc1", 1.35),
    ("COc1ccc(O[C@H]2C=C[C@@H](c3ccccc3)O[C@@H]2CON=C2[C@H]3CCn4c(=O)n(-c5ccccc5)c(=O)n4[C@H]3[C@H](O)[C@@H]3O[C@H]23)cc1", 0.0056),
]

Read the next record carefully.
Req: Quick one: z-score of COC(=O)CC=C[C@@H](C)[C@@H](C=NOC[C@@H](O)[C@H]1O[C@@H]2OC(C)(C)O[C@@H]2[C@H]1O)NS(=O)(=O)c1ccc(C)cc1 ?
Resp: 0.0095

---

assay: P. aeruginosa biofilm formation inhibitors, primary screen, PAO1 strain, BacTiter-Glo luminescence, LB-PBS (AID 1144); conditions: 12 h, higher = more signal
The source made the active and inactive calls. How the calls were made is not given here.
Listed below: z-score values for each entry.

Known results for molecules:
# Smiles Code, z-score
rows = [
    ("COC(=O)CC=C[C@@H](C)[C@@H](C=NO[C@@H](C)c1cn([C@H](CO)Cc2ccccc2)nn1)OC", "-0.54 (inactive)"),
    ("CC(C)=CCCC(C)=CCON=C1C[C@@H](O)[C@@H](O)[C@@H]2[C@@H]3C(=O)N(C4CCCCC4)C(=O)[C@@H]3CC[C@@H]12", "0.233 (inactive)"),
    ("COc1ccc(O[C@H]2C=C[C@@H](c3ccccc3)O[C@@H]2CON=C(C)C)cc1", "-0.385 (inactive)"),
]

// next item, z-score requested
Req: // returns reported z-score for input COC(=O)[C@@H]1CC[C@H](C)[C@@H](c2ccc(C)cc2)N1C(=O)c1ccc(C=NO[C@H](C)c2cn([C@H](CO)Cc3ccccc3)nn2)cc1
Resp: 0.0292 (inactive)

---

assay: small-molecule microarray binders of probe aShh, primary screen, biochemical, biotinylated probe, 635/667 nm fluorescence (AID 1114); conditions: higher = more signal;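 further: probe is biotin-labelled aShh protein from a stem cell growth factor screen; measures binding of labelled protein to compounds printed on the slide; score merges feature fluorescence at 667 nm with signal-to-noise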
Quantity: composite z-score
# output: bare number, no unit

Answered examples (3):
# Molecule, composite z-score
records = [
    ("CO[C@@H]1C=CCC(=O)N2CCC[C@H]2C(=O)OC[C@@H](C)C(=O)OC[C@H]1C", -0.0362),
    ("C[C@H]1CC[C@H]2C(=O)OC(CO)CN2[C@@H]1c1ccc(Br)cc1 (some centres undefined)", 0.0284),
    ("CC=CC1=C(CO)C(=O)[C@@H]2O[C@@H]2C1=O", -0.304),
]

Req: What value of composite z-score has been recorded for this entry: O=C1[C@H]2[C@H]3[C@H](O)[C@H](O)CC(=NOCc4ccccc4)[C@@H]3CC[C@H]2C(=O)N1Cc1ccc2c(c1)OCO2
Resp: -0.154

Req: Follow-up item: C[C@@H](c1ccccc1)N1C(=O)[C@H]2[C@H]3[C@H](O)[C@H](O)CC(=NOCc4ccccc4)[C@H]3CC[C@H]2C1=O
Resp: -0.0626

Req: Now give it for CC(C)CON=C1[C@H]2CCn3c(=O)n(Cc4cc5c(cc4Cl)OCO5)c(=O)n3[C@H]2[C@H](O)[C@@H]2O[C@H]12 too.
Resp: 0.0815

Req: Now consider CCOC(=O)[C@H](Cc1ccccc1)NC(=O)CCC1CC(OC(=O)NCc2cccc3ccccc23)CC2(CCCC(COC(=O)NCC(c3ccccc3)c3ccccc3)O2)O1 (some centres undefined) .
Resp: -0.2

Req: Also O=C1C[C@@H](O)[C@@H](O)[C@@H]2[C@@H]3C(=O)N(Cc4ccccc4)C(=O)[C@@H]3CC[C@@H]12 ?
Resp: 0.0684

Req: Okay, and O=C1[C@H]2[C@H]3[C@H](O)[C@H](O)CC(=NOCc4ccccc4)[C@H]3CC[C@H]2C(=O)N1Cc1ccc2c(c1)OCO2 ?
Resp: -0.0553

Req: Similarly, CO[C@@H]1COC(=O)CC=C[C@@H](C)[C@@H]2C=C[C@H](O)[C@@H](COC(=O)CC=C[C@H]1C)O2 ?
Resp: -0.0146

Req: Moving on to the next molecule: COC(=O)[C@@H]1CC[C@H](C)[C@@H](c2ccc(C)cc2)N1C(=O)c1ccc(C=NOCC[C@@H]2C=C[C@H](OC(C)=O)[C@@H](COC(C)=O)O2)cc1
Resp: -0.0553

Req: Also check CC[C@@H](c1ccccc1)n1c(=O)n2n(c1=O)[C@H]1[C@H](O)[C@@H]3O[C@@H]3C(=NOC[C@@H](O)COCc3ccco3)[C@H]1CC2
Resp: -0.276

Req: Again, but for CCOC(=O)C1=NO[C@@]2(C=C(Br)C3(OCCCO3)[C@H]3O[C@H]32)C1
Resp: 0.0952

Req: What do you get for CCC1=NOC(CCC2CC(OC(=O)NCc3cccc4c3OCO4)CC3(CCCC(COC(=O)NCCc4ccccc4OC)O3)O2)C1 (centres undefined) ?
Resp: -0.0793

Req: CO[C@@H]1COC(=O)CC=C[C@H](C)[C@H](OC)COC(=O)[C@H](C)NC(=O)CC=C[C@H]1C ?
Resp: 0.479

Req: What do you get for C[C@@H](c1ccccc1)N1C(=O)[C@H]2[C@H]3[C@H](O)[C@H](O)CC(=NO[C@@H]4O[C@H](CO)[C@@H](O)[C@H](O)[C@H]4O)[C@@H]3CC[C@H]2C1=O ?
Resp: -0.19

Req: Try this molecule too: CC(C)(C)N1C(=O)[C@H]2[C@H]3[C@H](O)[C@H](O)CC(=NOCc4ccccc4)[C@H]3CC[C@H]2C1=O
Resp: -0.154

Req: Then this molecule: C=C(C)C(=O)OCC1CN2[C@@H](CC[C@@H](C)[C@@H]2c2ccc(Br)cc2)C(=O)O1 (some centres undefined)
Resp: -0.229

Req: Next molecule: CON=Cc1ccc(C(=O)N2[C@H](c3ccc(C)cc3)[C@@H](C)CC[C@H]2C(=O)OC)cc1
Resp: 0.0684

Req: Also CCCNC(=O)OC[C@H]1O[C@H](CCON=C(C)C)C=C[C@@H]1Oc1ccc(OC)cc1 ?
Resp: -0.282

Req: And then CO[C@H]1COC(=O)CC=C[C@H](C)[C@@H](OC)COC(=O)[C@@H](C)NC(=O)CC=C[C@@H]1C , what is it?
Resp: -0.367

Req: Could you do the same for CO[C@@H]1COC(=O)[C@@H](C)NC(=O)CC=C[C@@H](C)[C@H](NS(=O)(=O)c2ccc(C)cc2)COC(=O)[C@H](C)NC(=O)CC=C[C@H]1C , please?
Resp: -0.0709

Req: Try this molecule next: C[C@@H](ON=C1[C@H]2CCn3c(=O)n(-c4ccccc4)c(=O)n3[C@H]2[C@H](O)[C@@H]2O[C@H]12)c1cn([C@@H]2COC[C@H]2O)nn1
Resp: 0.0611
